Answer each item with its documented IC50.
Biological target: p34^cdc2/cyclin B (CDC2) (Homo sapiens, UniProt P06493)
Sequence (P06493 whole entry, species assumed): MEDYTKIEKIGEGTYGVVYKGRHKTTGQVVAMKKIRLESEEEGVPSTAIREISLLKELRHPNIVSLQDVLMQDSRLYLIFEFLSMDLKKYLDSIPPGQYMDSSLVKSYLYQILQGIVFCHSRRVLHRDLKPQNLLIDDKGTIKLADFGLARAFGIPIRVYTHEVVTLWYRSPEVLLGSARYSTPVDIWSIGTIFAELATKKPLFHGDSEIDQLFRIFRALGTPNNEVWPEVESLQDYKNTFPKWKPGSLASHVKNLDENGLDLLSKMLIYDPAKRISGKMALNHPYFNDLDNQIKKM
Sequence (P14635 whole entry partner, species assumed): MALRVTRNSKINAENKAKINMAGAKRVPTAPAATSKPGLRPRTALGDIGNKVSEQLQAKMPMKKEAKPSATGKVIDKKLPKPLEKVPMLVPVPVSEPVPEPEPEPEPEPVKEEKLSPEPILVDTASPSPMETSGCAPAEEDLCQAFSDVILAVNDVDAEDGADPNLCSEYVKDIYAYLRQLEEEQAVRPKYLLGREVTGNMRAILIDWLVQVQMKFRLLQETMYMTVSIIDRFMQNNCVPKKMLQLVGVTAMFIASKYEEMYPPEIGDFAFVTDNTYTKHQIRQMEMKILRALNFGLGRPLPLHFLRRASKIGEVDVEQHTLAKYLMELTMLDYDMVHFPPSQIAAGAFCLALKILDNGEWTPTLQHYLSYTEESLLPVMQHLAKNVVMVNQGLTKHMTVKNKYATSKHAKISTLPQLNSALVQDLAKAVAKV
Experiment: CDK inhibition assay, p34cdc2/cyclin B kinase, histone H1 phosphorylation

Requested field: IC50. Item: `CC[C@H](CO)Nc1nc(NCc2ccc(OC)c(O)c2O)c2nnn(C(C)C)c2n1`
14 µM

Which IC50 is listed for `CC[C@H](CO)Nc1nc(Nc2ccc(C(=O)O)c(Cl)c2)c2nnn(C(C)C)c2n1` ?
35 µM

Item under review: `Cn1nnc2c(NCc3c(O)cc(Cl)cc3O)nc(NCCO)nc21` . Reported IC50?
22 µM

Suppose we examine the molecule `CC[C@H](CO)Nc1nc(N(C)CCc2ccc(O)c(O)c2)c2nnn(C(C)C)c2n1` ; what IC50 value has been reported?
> 100 µM

Request the reported IC50 associated with `CC(C)[C@H](CO)Nc1nc(NCc2ccccc2)c2nnn(C)c2n1`
50 µM

Quick check: IC50 of `COc1cc(O)c(CNc2nc(N[C@@H](CO)C(C)C)nc3c2nnn3C(C)C)c(O)c1` ?
10 µM

Bench note: what IC50 did `Cn1nnc2c(NCc3ccc(Cl)c(N)c3)nc(NCCO)nc21` show?
50 µM

Item `Cn1nnc2c(Nc3ccc(Cl)c(C(=O)O)c3)nc(NCCO)nc21` has what recorded IC50?
43 µM

Dear colleague, I am looking for the recorded IC50 of the following molecule: `CC(C)n1nnc2c(NCc3ccccc3)nc(NCCCO)nc21`
> 100 µM

What does the record list as IC50 for `CC(C)[C@H](CO)Nc1nc(NCc2ccccc2O)c2nnn(C(C)C)c2n1` ?
7 µM

Which IC50 value belongs to CCC(CO)Nc1nc(NCc2cccc(Cl)c2O)c2nnn(C(C)C)c2n1 (centres unmarked) ?
16 µM

Name the recorded IC50 for `CC[C@H](CO)Nc1nc(NCc2ccc(O)c(O)c2)c2nnn(C(C)C)c2n1` .
40 µM

Could you tell me which IC50 is on file for `CC(=O)c1cccc(CNc2nc(N[C@@H](CO)C(C)C)nc3c2nnn3C(C)C)c1` ?
40 µM

Fill in: IC50 of `COc1cc(O)c(CNc2nc(NCCO)nc3c2nnn3C)cc1O` is ___
22 µM

Request the reported IC50 associated with `CC(C)[C@H](CO)Nc1nc(Nc2ccccc2)c2nnn(C(C)C)c2n1`
40 µM

Given `CC(C)n1nnc2c(NCc3ccccc3)nc(NCCO)nc21` , state its recorded IC50.
> 100 µM

GET /values?readout=IC50&item= `CC(C)[C@H](CO)Nc1nc(Nc2ccc(N)c(Cl)c2)c2nnn(C(C)C)c2n1`
40 µM
